Test system: HCT116 cells
procedure.details: HCT116 cytotoxic activity assay (Alamar Blue, 72 h)
test.conditions: Homo sapiens, HCT-116, read-out: IC50 in the HCT116 cytotoxic activity assay
Counter-ions that a name gives are not always drawn.
measured.endpoint: IC50

[
  {
    "compound": "CC(C)S(=O)(=O)NCc1cc(Oc2ccc(Nc3cc(-c4ccccc4)nc(N)n3)cc2)ccn1 [Example 95, trifluoroacetate]",
    "target.system": "HCT116 cells",
    "measured.endpoint": "IC50",
    "recorded.result": "≤ 500 nM"
  },
  {
    "compound": "NC(=O)NCc1cc(Oc2ccc(Nc3cc(-c4ccccc4)nc(N)n3)cc2)ccn1 [Example 101, trifluoroacetate]",
    "target.system": "HCT116 cells",
    "measured.endpoint": "IC50",
    "recorded.result": "500 to 2000 nM"
  },
  {
    "compound": "NCC(=O)Nc1ccc(-c2cc(Nc3ccc(Oc4ccnc(C(F)(F)F)c4)cc3)nc(N)n2)cc1",
    "target.system": "HCT116 cells",
    "measured.endpoint": "IC50",
    "recorded.result": "≤ 500 nM"
  },
  {
    "compound": "COc1cc(-c2cc(Nc3ccc(Oc4ccnc(C#N)c4)cc3)nc(N)n2)ccc1N",
    "target.system": "HCT116 cells",
    "measured.endpoint": "IC50",
    "recorded.result": "≤ 500 nM"
  },
  {
    "compound": "Nc1nc(Nc2ccc(Oc3ccnc(C(=O)N4CC[C@@H](O)C4)c3)cc2)cc(-c2ccccc2)n1 [Example 82, trifluoroacetate]",
    "target.system": "HCT116 cells",
    "measured.endpoint": "IC50",
    "recorded.result": "500 to 2000 nM"
  },
  {
    "compound": "COc1ccc(S(=O)(=O)NCc2cc(Oc3ccc(Nc4cc(-c5ccccc5)nc(N)n4)cc3)ccn2)cc1 [Example 97, trifluoroacetate]",
    "target.system": "HCT116 cells",
    "measured.endpoint": "IC50",
    "recorded.result": "≤ 500 nM"
  },
  {
    "compound": "NCCCC(=O)Nc1ccc(-c2cc(Nc3ccc(Oc4ccnc(C(F)(F)F)c4)cc3)nc(N)n2)cc1",
    "target.system": "HCT116 cells",
    "measured.endpoint": "IC50",
    "recorded.result": "500 to 2000 nM"
  }
]
